Reference for the values: patent US20260306640A1

Listing of recorded DC50 by entry.
# TEST_TARGET: KAT2A (Homo sapiens, UniProt Q92830)
# Sequence (Q92830 whole entry): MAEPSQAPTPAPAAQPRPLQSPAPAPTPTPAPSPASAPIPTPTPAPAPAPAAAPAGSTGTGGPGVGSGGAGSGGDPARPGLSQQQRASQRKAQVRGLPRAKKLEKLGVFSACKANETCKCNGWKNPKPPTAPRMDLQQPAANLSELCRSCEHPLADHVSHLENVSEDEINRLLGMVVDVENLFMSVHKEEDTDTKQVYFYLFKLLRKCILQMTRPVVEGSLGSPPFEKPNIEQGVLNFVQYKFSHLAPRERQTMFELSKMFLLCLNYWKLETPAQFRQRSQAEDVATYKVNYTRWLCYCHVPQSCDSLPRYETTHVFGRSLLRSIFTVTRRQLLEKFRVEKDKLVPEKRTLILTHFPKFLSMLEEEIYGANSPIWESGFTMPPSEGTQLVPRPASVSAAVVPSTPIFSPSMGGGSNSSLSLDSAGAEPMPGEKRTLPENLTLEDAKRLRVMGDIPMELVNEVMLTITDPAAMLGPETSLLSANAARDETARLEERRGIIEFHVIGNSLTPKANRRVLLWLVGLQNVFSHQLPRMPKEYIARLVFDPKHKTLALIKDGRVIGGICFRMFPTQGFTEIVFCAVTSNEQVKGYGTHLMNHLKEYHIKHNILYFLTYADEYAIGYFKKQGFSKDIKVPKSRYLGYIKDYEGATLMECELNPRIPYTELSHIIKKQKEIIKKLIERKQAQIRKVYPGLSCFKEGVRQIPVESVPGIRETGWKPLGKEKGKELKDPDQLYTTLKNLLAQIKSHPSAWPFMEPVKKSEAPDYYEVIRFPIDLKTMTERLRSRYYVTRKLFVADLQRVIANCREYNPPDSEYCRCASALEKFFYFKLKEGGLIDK
# PROTOCOL_DESCRIPTION: KAT2A degradation, Western Blot (Jess), NCI-H1048 cells
# Format: cell-based
# Parameters: degrader, Western blot (Jess)
# REPORTED_CONDITIONS: NCI-H1048 cells, KAT2A, 24 h, Western Blot, vs DMSO; read-out: KAT2A NCI-H1048 DC50
# Description: MOLM-13 cells or NCI-H1048 cells were used for Western Blot analysis of KAT2A degradation. KAT2B degradation can be measured in a similar manner with NCI-H1048 cells. […] MOLM-13 cells or NCI-H1048 cells were washed with PBS, then lysed with RIPA buffer containing 1×protease and phosphatase inhibitors (SantaCruz Biotechnologies Cat #sc-24948A). […] Protein was quantified via Bradford assay. […] Signal was detected by chemiluminescence. […]

Some entries whose results are on file:
COMPOUND: CN1C[C@H](Nc2cnn(C)c(=O)c2Br)C[C@H](c2ccc(C(=O)N3CCC4(CCC(c5ccc(C6CCC(=O)NC6=O)cn5)CC4)CC3)cc2)C1 (stereo partly drawn) [Compound 321]
DC50: < 1 nM

COMPOUND: Cc1cc(C2CCC(=O)NC2=O)ccc1N1CCC2(CCN(C(=O)c3ccc([C@H]4C[C@@H](Nc5cnn(C)c(=O)c5C)CN(C)C4)cc3)CC2)CC1 (stereo partly drawn) [Compound 249]
DC50: < 1 nM

COMPOUND: CN1C[C@H](Nc2cnn(C)c(=O)c2Br)C[C@H](c2ccc(CN3CCN(c4ccnc(C5CCC(=O)NC5=O)c4)CC3)cc2)C1 (stereo partly drawn) [Compound 350]
DC50: 1 to 30 nM

COMPOUND: Cc1c(N[C@@H]2C[C@H](c3ccc(C(=O)N4CCC5(CC4)CCN(c4ccc(C6CCC(=O)NC6=O)c(F)c4)CC5)cc3)CN(C)C2)cnn(C)c1=O (stereo partly drawn) [Compound 316]
DC50: < 1 nM

COMPOUND: CN1C[C@H](Nc2cnn(C)c(=O)c2Br)C[C@H](c2ccc(CN3CCN(c4ccc5c(C6CCC(=O)NC6=O)nccc5c4)CC3)cc2)C1 (stereo partly drawn) [Compound 382]
DC50: < 1 nM

Task: What DC50 value was documented for this compound, CC(=O)N[C@H](C(=O)N1C[C@H](O)C[C@H]1C(=O)NCc1ccc(-c2scnc2C)cc1OCCCCNC(=O)c1ccc([C@H]2C[C@@H](Nc3cnn(C)c(=O)c3Br)CN(C)C2)cc1)C(C)(C)C [Compound 406] ?
Output: > 30 nM

Task: What DC50 value was documented for this compound, CN1C[C@H](Nc2cnn(C)c(=O)c2Cl)C[C@H](c2ccc(C(=O)N3CCC4(CC3)CCN(c3ccc(C5CCC(=O)NC5=O)cc3OC(F)(F)F)CC4)cc2)C1 (stereo partly drawn) [Compound 260] ?
Output: < 1 nM

Task: What DC50 value was documented for this compound, Cc1c(N2CCC3(CCN(C(=O)c4ccc([C@H]5C[C@@H](Nc6cnn(C)c(=O)c6Br)CN(C)C5)cc4)CC3)CC2)ccc(C2CCC(=O)NC2=O)c1F (stereo partly drawn) [Compound 235] ?
Output: < 1 nM
